- Test system: southern crabgrass
- Protocol notes: Foliage treatment test for upland field (Test Example 3): southern crabgrass
- Type: in vivo
- Assay setup: dose 2.5 g ai/a; foliage treatment at 1.0-2.0 leaf stage of southern crabgrass; examined after 3 weeks
- Excerpt: Evaluation of the herbicidal effect is shown in the following six grades, by comparing the condition of untreated control and growth inhibition (%): • 0: 0%-less than 20% • 1: 20%-less than 40% • 2: 40%-less than 60% • 3: 60%-less than 80% • 4: 80%-less than 100% • 5: 100%. Compost mixed soil was filled in 1/3,000 are pots, seeded with southern crabgrass, common lambsquaters, slender amaranth, common purslane, velvetleaf, wheat, corn and soybean. […]
Give Herbicidal Effect southern crabgrass for every item shown.

Incoming: Entry COC/C(=C\c1cccc(C(F)(F)F)c1)c1nc2cc(Cl)ccc2o1 has what Herbicidal Effect southern crabgrass?
Outgoing: 5 (100%)

Incoming: Again, but for COCC(=Cc1ccc(F)c(C(F)(F)F)c1)c1nc2cc(F)c(F)cc2o1
Outgoing: 4 (80%-less than 100%)

Incoming: Again, but for COCC(=Cc1cccc(C(F)(F)F)c1)c1nc2cc(C(C)(C)C)ccc2o1
Outgoing: 4 (80%-less than 100%)

Incoming: Again, but for COCC(=Cc1cccc(C(F)(F)F)c1)c1nc2cc(Br)ccc2o1
Outgoing: 4 (80%-less than 100%)

Incoming: Again, but for COCC(=Cc1ccc(Cl)c(C(F)(F)F)c1)c1nc2cc(Cl)ccc2o1
Outgoing: 5 (100%)

Incoming: Again, but for COCC(=Cc1cccc(C(F)(F)F)c1)c1nc2cc(C#N)c(F)cc2o1
Outgoing: 4 (80%-less than 100%)

Incoming: Again, but for CCOC/C(=C\c1cccc(C(F)(F)F)c1)c1nc2cc(Cl)ccc2o1
Outgoing: 5 (100%)

Incoming: Again, but for FC(F)C(F)(F)COCC(=Cc1cccc(C(F)(F)F)c1)c1nc2cc(C(F)(F)F)ccc2o1
Outgoing: 4 (80%-less than 100%)

Incoming: Again, but for COCC(=Cc1cccc(C(F)(F)F)c1)c1nc2cc(OC(F)(F)F)ccc2o1
Outgoing: 4 (80%-less than 100%)

====

Give Phytotoxicity wheat for every item shown.
- Test system: wheat
- Protocol notes: Foliage treatment test for upland field (Test Example 3): phytotoxicity to wheat
- Format: in vivo
- Assay setup: dose 5 g ai/a; foliage treatment at 1.0-2.0 leaf stage of southern crabgrass; examined after 3 weeks
- From the text: Evaluation of phytotoxicity is shown in the following six grades, as compared with the condition of untreated control: • 0: normal growth • 1: little damaged • 2: low damaged • 3: medium damaged • 4: serious damaged • 5: complete killed. Compost mixed soil was filled in 1/3,000 are pots, seeded with southern crabgrass, common lambsquaters, slender amaranth, common purslane, velvetleaf, wheat, corn and soybean. […]

Incoming: Entry COCC(=Cc1cccc(C(F)(F)F)c1)c1nc2cc(OC(F)(F)F)ccc2o1 has what Phytotoxicity wheat?
Outgoing: 1

Incoming: Again, but for COCC(=Cc1cccc(C(F)(F)F)c1)c1nc2cc(C(F)(F)F)ccc2o1
Outgoing: 1

Incoming: Again, but for COCC(=Cc1cccc(C(F)(F)F)c1)c1nc2cc(C#N)c(F)cc2o1
Outgoing: 0

Incoming: Again, but for COCC(=Cc1cccc(C(F)(F)F)c1)c1nc2cc(Br)ccc2o1
Outgoing: 1

Incoming: Again, but for COCC(=Cc1cccc(C(F)(F)F)c1)c1nc2cc(C(C)(C)C)ccc2o1
Outgoing: 0

Incoming: Again, but for CCOCC(=Cc1cccc(C(F)(F)F)c1)c1nc2cc(C(F)(F)F)ccc2o1
Outgoing: 1

====

- Test system: corn
- Protocol notes: Soil treatment test for upland field (Test Example 2): phytotoxicity to corn
- Format: in vivo
- Assay setup: dose 5 g ai/a; soil treatment before germination; examined after 3 weeks
Property measured: Phytotoxicity corn
# print the numeric value only

Incoming: Param readout= Phytotoxicity corn; system= corn; entry= CCOCC(=Cc1cccc(C(F)(F)F)c1)c1nc2cc(C(F)(F)F)ccc2o1 [Compound 54] ; returns value.
Outgoing: 1

Incoming: Again, but for CSCC(=Cc1cccc(C(F)(F)F)c1)c1nc2cc(Cl)ccc2o1 [Compound 30]
Outgoing: 0

Incoming: Again, but for CCOCC(=Cc1cccc(C(F)(F)F)c1)c1nc2cc(F)c(C(F)(F)F)cc2o1 [Compound 141]
Outgoing: 0

Incoming: Again, but for CCOC/C(=C\c1cccc(C(F)(F)F)c1)c1nc2cc(Cl)ccc2o1 [Compound 11]
Outgoing: 1

Incoming: Again, but for FC(F)(F)COC/C(=C\c1cccc(C(F)(F)F)c1)c1nc2cc(C(F)(F)F)ccc2o1 [Compound 85]
Outgoing: 0

Incoming: Again, but for COCC(=Cc1cccc(C(F)(F)F)c1)c1nc2cc(C(F)(F)F)ccc2o1 [Compound 52]
Outgoing: 1

Incoming: Again, but for COCC(=Cc1ccc(Cl)c(C(F)(F)F)c1)c1nc2cc(Cl)ccc2o1 [Compound 9]
Outgoing: 1

====

- Tested on: corn
- Protocol notes: Foliage treatment test for upland field (Test Example 3): phytotoxicity to corn
- Assay type: in vivo
- Assay setup: dose 2.5 g ai/a; foliage treatment at 1.0-2.0 leaf stage of southern crabgrass; examined after 3 weeks
- From the text: Evaluation of phytotoxicity is shown in the following six grades, as compared with the condition of untreated control: • 0: normal growth • 1: little damaged • 2: low damaged • 3: medium damaged • 4: serious damaged • 5: complete killed. Compost mixed soil was filled in 1/3,000 are pots, seeded with southern crabgrass, common lambsquaters, slender amaranth, common purslane, velvetleaf, wheat, corn and soybean. […]
Give Phytotoxicity corn for every item shown.
# print the numeric value only

Incoming: Param readout= Phytotoxicity corn; system= corn; entry= COCC(=Cc1ccc(F)c(C(F)(F)F)c1)c1nc2cc(F)c(F)cc2o1 [Compound 126] ; returns value.
Outgoing: 0

Incoming: Again, but for COCC(=Cc1cccc(C(F)(F)F)c1)c1nc2cc(Br)ccc2o1 [Compound 39]
Outgoing: 0

Incoming: Again, but for FC(F)(F)COC/C(=C\c1cccc(C(F)(F)F)c1)c1nc2cc(C(F)(F)F)ccc2o1 [Compound 85]
Outgoing: 1

Incoming: Again, but for FC(F)C(F)(F)COCC(=Cc1cccc(C(F)(F)F)c1)c1nc2cc(C(F)(F)F)ccc2o1 [Compound 87]
Outgoing: 0

Incoming: Again, but for COCC(=Cc1cccc(C(F)(F)F)c1)c1nc2cc(C#N)c(F)cc2o1 [Compound 117]
Outgoing: 0

Incoming: Again, but for COCC(=Cc1ccc(Cl)c(C(F)(F)F)c1)c1nc2cc(Cl)ccc2o1 [Compound 9]
Outgoing: 1

====

- Test system: wheat
- Protocol notes: Foliage treatment test for upland field (Test Example 3): phytotoxicity to wheat
- Assay type: in vivo
- Assay setup: dose 2.5 g ai/a; foliage treatment at 1.0-2.0 leaf stage of southern crabgrass; examined after 3 weeks
Property measured: Phytotoxicity wheat

Incoming: Entry COCC(=Cc1ccc(F)c(C(F)(F)F)c1)c1nc2cc(F)c(F)cc2o1 has what Phytotoxicity wheat?
Outgoing: 0

Incoming: Again, but for CCOC/C(=C\c1cccc(C(F)(F)F)c1)c1nc2cc(Cl)ccc2o1
Outgoing: 1

Incoming: Again, but for COCC(=Cc1cccc(C(F)(F)F)c1)c1nc2cc(C(F)(F)F)ccc2o1
Outgoing: 1

Incoming: Again, but for CCSCC(=Cc1cccc(C(F)(F)F)c1)c1nc2cc(C(F)(F)F)ccc2o1
Outgoing: 0

Incoming: Again, but for COCC(=Cc1cccc(C(F)(F)F)c1)c1nc2cc(Br)ccc2o1
Outgoing: 0

Incoming: Again, but for COCC(=Cc1cccc(C(F)(F)F)c1)c1nc2cc(C(C)(C)C)ccc2o1
Outgoing: 0

Incoming: Again, but for FC(F)(F)COC/C(=C\c1cccc(C(F)(F)F)c1)c1nc2cc(C(F)(F)F)ccc2o1
Outgoing: 1

Incoming: Again, but for FC(F)C(F)(F)COCC(=Cc1cccc(C(F)(F)F)c1)c1nc2cc(C(F)(F)F)ccc2o1
Outgoing: 0

====

- Tested on: corn
- Protocol notes: Foliage treatment test for upland field (Test Example 3): phytotoxicity to corn
- Assay type: in vivo
- Assay setup: dose 2.5 g ai/a; foliage treatment at 1.0-2.0 leaf stage of southern crabgrass; examined after 3 weeks
Property measured: Phytotoxicity corn

Incoming: Param readout= Phytotoxicity corn; system= corn; entry= CCOC/C(=C\c1cccc(C(F)(F)F)c1)c1nc2cc(Cl)ccc2o1 ; returns value.
Outgoing: 2

Incoming: Again, but for COCC(=Cc1cccc(C(F)(F)F)c1)c1nc2cc(C(F)(F)F)ccc2o1
Outgoing: 1

Incoming: Again, but for CSCC(=Cc1cccc(C(F)(F)F)c1)c1nc2cc(C(F)(F)F)ccc2o1
Outgoing: 0

Incoming: Again, but for COCC(=Cc1cccc(C(F)(F)F)c1)c1nc2cc(OC(F)(F)F)ccc2o1
Outgoing: 0

====

- System: soybean
- Protocol notes: Soil treatment test for upland field (Test Example 2): phytotoxicity to soybean
- Format: in vivo
- Assay setup: dose 2.5 g ai/a; soil treatment before germination; examined after 3 weeks
Give Phytotoxicity soybean for every item shown.
# print the numeric value only

Incoming: Entry COCC(=Cc1cccc(C(F)(F)F)c1)c1nc2cc(Br)ccc2o1 has what Phytotoxicity soybean?
Outgoing: 0

Incoming: Again, but for COCC(=Cc1cccc(C(F)(F)F)c1)c1nc2cc(C(F)(F)F)ccc2o1
Outgoing: 0

Incoming: Again, but for CCOCC(=Cc1cccc(C(F)(F)F)c1)c1nc2cc(C(F)(F)F)ccc2o1
Outgoing: 0

Incoming: Again, but for CCSCC(=Cc1cccc(C(F)(F)F)c1)c1nc2cc(C(F)(F)F)ccc2o1
Outgoing: 0

Incoming: Again, but for FC(F)(F)COC/C(=C\c1cccc(C(F)(F)F)c1)c1nc2cc(C(F)(F)F)ccc2o1
Outgoing: 0

Incoming: Again, but for CSCC(=Cc1cccc(C(F)(F)F)c1)c1nc2cc(Cl)ccc2o1
Outgoing: 0

Incoming: Again, but for COCC(=Cc1ccc(F)c(C(F)(F)F)c1)c1nc2cc(F)c(F)cc2o1
Outgoing: 0

Incoming: Again, but for CSCC(=Cc1cccc(C(F)(F)F)c1)c1nc2cc(C(F)(F)F)ccc2o1
Outgoing: 0

Incoming: Again, but for COCC(=Cc1ccc(Cl)c(C(F)(F)F)c1)c1nc2cc(Cl)ccc2o1
Outgoing: 0

Incoming: Again, but for COC/C(=C\c1cccc(C(F)(F)F)c1)c1nc2cc(Cl)ccc2o1
Outgoing: 0

Incoming: Again, but for COCC(=Cc1cccc(C(F)(F)F)c1)c1nc2cc(OC(F)(F)F)ccc2o1
Outgoing: 0

Incoming: Again, but for CCOC/C(=C\c1cccc(C(F)(F)F)c1)c1nc2cc(Cl)ccc2o1
Outgoing: 0

Incoming: Again, but for CCOCC(=Cc1cccc(C(F)(F)F)c1)c1nc2cc(F)c(F)cc2o1
Outgoing: 0

Incoming: Again, but for FC(F)C(F)(F)COCC(=Cc1cccc(C(F)(F)F)c1)c1nc2cc(C(F)(F)F)ccc2o1
Outgoing: 0

Incoming: Again, but for CCOCC(=Cc1cccc(C(F)(F)F)c1)c1nc2cc(F)c(C(F)(F)F)cc2o1
Outgoing: 0
